# Test system: transgenic Arabidopsis thaliana T1 plants (ALT-1-01, ALT-2-01, ALT-3-01; cytoplasmic or chloroplastic)
# RUN_DESCRIPTION: Herbicide tolerance of transgenic Arabidopsis thaliana T1 plants expressing thifensulfuron hydrolase, resistance classes counted after spraying
# Format: in vivo
# CONDITION_SUMMARY: At cytoplasmic ALT-1-01 T1 plants; 1-fold field concentration (g ai/ha: Sulfometuron-methyl 30, iodosulfuron-methyl 10, mesosulfuron 14, oxasulfuron 60); 14 days after spraying
VALUE_KIND: Non-resistant (number of plants dead)
Field format: numeric only.

Task item: Data request, read-out Non-resistant (number of plants dead), for COC(=O)c1ccccc1S(=O)(=O)NC(=O)Nc1nc(C)cc(C)n1
Reply: 1

Task item: Again, but for Cc1cc(C)nc(NC(=O)NS(=O)(=O)c2ccccc2C(=O)OC2COC2)n1
Reply: 28

Task item: // repeat for COC(=O)c1ccc(I)cc1S(=O)(=O)NC(=O)Nc1nc(C)nc(OC)n1 and report
Reply: 29

Switching to the query record.
Task item: Item COc1cc(OC)nc(NC(=O)NS(=O)(=O)c2cc(CNS(C)(=O)=O)ccc2C(=O)O)n1 has what recorded Non-resistant (number of plants dead)?
Reply: 29

* * *

// reported Highly resistant (number of plants with growth status consistent with blank solvent group) for each item listed
# Test system: transgenic Arabidopsis thaliana T1 plants (ALT-1-01, ALT-2-01, ALT-3-01; cytoplasmic or chloroplastic)
# RUN_DESCRIPTION: Herbicide tolerance of transgenic Arabidopsis thaliana T1 plants expressing thifensulfuron hydrolase, resistance classes counted after spraying
# Format: in vivo
# CONDITION_SUMMARY: At chloroplastic ALT-2-01 T1 plants; 1-fold field concentration (g ai/ha: Sulfometuron-methyl 30, iodosulfuron-methyl 10, mesosulfuron 14, oxasulfuron 60); 14 days after spraying
# Excerpt: T1 transformants were initially selected from the background of untransformed seeds using a glufosinate selection scheme. […] The herbicide tolerance effects of At cytoplasmic ALT-1-01 T1 plants, At chloroplastic ALT-1-01 T1 plants, At cytoplasmic ALT-2-01 T1 plants, At chloroplastic ALT-2-01 T1 plants, At cytoplasmic ALT-3-01 T1 plants, At chloroplastic ALT-3-01 T1 plants and wild-type Arabidopsis thaliana plants on Sulfometuron-methyl were detected (14 days after sowing), respectively. […]

Consider the following illustrative entries.
Task item: Requested field: Highly resistant (number of plants with growth status consistent with blank solvent group). Item: COC(=O)c1ccccc1S(=O)(=O)NC(=O)Nc1nc(C)cc(C)n1 [Sulfometuron-methyl]
Reply: 29

Task item: Lookup COC(=O)c1ccc(I)cc1S(=O)(=O)NC(=O)Nc1nc(C)nc(OC)n1 [iodosulfuron-methyl]
Reply: 0

---
Task item: Consider the compound shown here: Cc1cc(C)nc(NC(=O)NS(=O)(=O)c2ccccc2C(=O)OC2COC2)n1 [oxasulfuron] What is its recorded Highly resistant (number of plants with growth status consistent with blank solvent group)?
Reply: 0

Task item: # repeat for COc1cc(OC)nc(NC(=O)NS(=O)(=O)c2cc(CNS(C)(=O)=O)ccc2C(=O)O)n1 [mesosulfuron]
Reply: 0

* * *

# System: transgenic Arabidopsis thaliana T1 plants (ALT-1-01, ALT-2-01, ALT-3-01; cytoplasmic or chloroplastic)
# RUN_DESCRIPTION: Herbicide tolerance of transgenic Arabidopsis thaliana T1 plants expressing thifensulfuron hydrolase, resistance classes counted after spraying
# Type: in vivo
# CONDITION_SUMMARY: At cytoplasmic ALT-1-01 T1 plants; 1-fold field concentration (g ai/ha: Sulfometuron-methyl 30, iodosulfuron-methyl 10, mesosulfuron 14, oxasulfuron 60); 14 days after spraying
# Poorly resistant (number of plants still not capable of bolting) values compiled below
Reply with the value as a number alone.

Sample answers from the record:
Task item: Could you share which Poorly resistant (number of plants still not capable of bolting) value was measured for COC(=O)c1ccccc1S(=O)(=O)NC(=O)Nc1nc(C)cc(C)n1 [Sulfometuron-methyl] ?
Reply: 1

Task item: Repeat for the following compound: Cc1cc(C)nc(NC(=O)NS(=O)(=O)c2ccccc2C(=O)OC2COC2)n1 [oxasulfuron]
Reply: 0

Task item: Likewise for COC(=O)c1ccc(I)cc1S(=O)(=O)NC(=O)Nc1nc(C)nc(OC)n1 [iodosulfuron-methyl] ?
Reply: 0

Lab note: next compound to report on.
Task item: Given COc1cc(OC)nc(NC(=O)NS(=O)(=O)c2cc(CNS(C)(=O)=O)ccc2C(=O)O)n1 [mesosulfuron] , state its recorded Poorly resistant (number of plants still not capable of bolting).
Reply: 0
